Origin of measurements: ChEMBL document CHEMBL1152371

measuredTarget: Angiotensin-converting enzyme (Oryctolagus cuniculus) (UniProt P12822)
Sequence (P12822 whole entry): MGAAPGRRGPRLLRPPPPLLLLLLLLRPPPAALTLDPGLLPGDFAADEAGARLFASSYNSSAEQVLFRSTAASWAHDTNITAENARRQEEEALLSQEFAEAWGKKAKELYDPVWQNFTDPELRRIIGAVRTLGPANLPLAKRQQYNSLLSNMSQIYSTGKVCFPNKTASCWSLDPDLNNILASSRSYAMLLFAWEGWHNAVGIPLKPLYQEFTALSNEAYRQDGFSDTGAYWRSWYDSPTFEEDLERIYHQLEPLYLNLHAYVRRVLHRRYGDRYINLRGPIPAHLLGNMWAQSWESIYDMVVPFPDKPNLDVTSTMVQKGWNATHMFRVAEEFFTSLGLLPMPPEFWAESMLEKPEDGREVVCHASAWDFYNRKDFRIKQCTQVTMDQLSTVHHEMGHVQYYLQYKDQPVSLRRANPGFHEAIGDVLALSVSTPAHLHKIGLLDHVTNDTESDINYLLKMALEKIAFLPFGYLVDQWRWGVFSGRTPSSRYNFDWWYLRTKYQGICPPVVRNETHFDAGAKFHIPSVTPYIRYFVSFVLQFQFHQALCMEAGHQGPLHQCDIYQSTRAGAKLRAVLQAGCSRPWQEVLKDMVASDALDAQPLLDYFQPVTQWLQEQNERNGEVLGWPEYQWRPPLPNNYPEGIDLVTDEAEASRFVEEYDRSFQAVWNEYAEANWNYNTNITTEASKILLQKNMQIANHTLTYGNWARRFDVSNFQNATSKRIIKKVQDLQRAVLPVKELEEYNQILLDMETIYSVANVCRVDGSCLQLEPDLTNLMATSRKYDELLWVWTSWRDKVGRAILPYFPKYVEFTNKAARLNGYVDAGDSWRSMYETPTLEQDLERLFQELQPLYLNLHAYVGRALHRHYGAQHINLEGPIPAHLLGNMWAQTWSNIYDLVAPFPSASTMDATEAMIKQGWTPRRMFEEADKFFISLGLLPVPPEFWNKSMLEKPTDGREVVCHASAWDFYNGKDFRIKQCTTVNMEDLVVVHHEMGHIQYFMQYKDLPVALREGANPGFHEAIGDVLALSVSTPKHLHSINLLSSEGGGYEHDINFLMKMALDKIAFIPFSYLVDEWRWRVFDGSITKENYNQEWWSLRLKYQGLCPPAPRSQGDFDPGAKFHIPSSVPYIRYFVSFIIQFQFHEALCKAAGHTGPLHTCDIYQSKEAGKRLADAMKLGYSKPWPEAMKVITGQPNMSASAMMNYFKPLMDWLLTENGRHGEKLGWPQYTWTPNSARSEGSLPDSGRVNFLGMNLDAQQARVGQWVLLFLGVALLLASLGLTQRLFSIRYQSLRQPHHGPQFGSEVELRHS
assay: Inhibition of rabbit lung ACE activity relative to control
Design: concentration or dose not given beside the values
conditionNotes: concentration not given here
outcomeMeasure: inhibition (%)

structureSmilesString: NCCC[C@H](NC(=O)CCCc1c[nH]c2ccccc12)C(=O)N1CCC[C@H]1C(=O)O
inhibition / %: 33.8

a: NCCC[C@H](NC(=O)Cc1ccsc1)C(=O)N1CCC[C@H]1C(=O)O
b: NCCC[C@H](NC(=O)CCc1ccsc1)C(=O)N1CCC[C@H]1C(=O)O
Looking at a and b , which one comes out lower in inhibition terms? # respond with the chosen item's label
a
